- Test system: Mycobacterium tuberculosis Erdman (autoluminescent)
- Experimental protocol: GRinf, maximum normalised growth rate inhibition (three-drug combination) (unitless (-1 to 1)); higher = less effect (negative = killing)
- Run conditions: in vitro model: cholesterol 0.05 mM; time point: constant (~7 days, model-specific)
Endpoint: GRinf
Write no unit; give the number alone.

A selection of reference data follows.
[
  {
    "Compound": "CC(C)/N=c1\\cc2n(-c3ccc(Cl)cc3)c3ccccc3nc-2cc1Nc1ccc(Cl)cc1 [clofazimine] + NNC(=O)c1ccncc1 [isoniazid] + CC(=O)NC[C@H]1CN(c2ccc(N3CCOCC3)c(F)c2)C(=O)O1 [linezolid]",
    "GRinf": -0.0122
  },
  {
    "Compound": "CC(=O)NC[C@H]1CN(c2ccc(N3CCOCC3)c(F)c2)C(=O)O1 [linezolid] + COc1c(N2C[C@@H]3CCCN[C@@H]3C2)c(F)cc2c(=O)c(C(=O)O)cn(C3CC3)c12 [moxifloxacin] + O=[N+]([O-])c1cn2c(n1)OC[C@@H](OCc1ccc(OC(F)(F)F)cc1)C2 [pretomanid]",
    "GRinf": -0.183
  },
  {
    "Compound": "NNC(=O)c1ccncc1 [isoniazid] + NC(=O)c1cnccn1 [pyrazinamide] + CO[C@H]1/C=C/O[C@@]2(C)Oc3c(C)c(O)c4c(O)c(c(/C=N/N5CCN(C6CCCC6)CC5)c(O)c4c3C2=O)NC(=O)/C(C)=C\\C=C\\[C@H](C)[C@H](O)[C@@H](C)[C@@H](O)[C@@H](C)[C@H](OC(C)=O)[C@@H]1C [rifapentine]",
    "GRinf": -0.183
  },
  {
    "Compound": "COc1nc2ccc(Br)cc2cc1[C@@H](c1ccccc1)[C@@](O)(CCN(C)C)c1cccc2ccccc12 [bedaquiline] + COc1c(N2C[C@@H]3CCCN[C@@H]3C2)c(F)cc2c(=O)c(C(=O)O)cn(C3CC3)c12 [moxifloxacin] + O=[N+]([O-])c1cn2c(n1)OC[C@@H](OCc1ccc(OC(F)(F)F)cc1)C2 [pretomanid]",
    "GRinf": -0.187
  }
]

Turning to the following compound.
// returns reported GRinf for input CC[C@@H](CO)NCCN[C@@H](CC)CO [ethambutol] + NNC(=O)c1ccncc1 [isoniazid] + O=[N+]([O-])c1cn2c(n1)OC[C@@H](OCc1ccc(OC(F)(F)F)cc1)C2 [pretomanid]
-0.203

Reference for the values: the supplement of paper PMC8617591
